Data origin: ChEMBL document CHEMBL1122683

Organism: Cavia porcellus
EXPERIMENTAL_PROTOCOL: Dose representing 50% inhibition of positive chronotropic response to histamine in guinea pig atrium (5 x 10e -6M)
Format: functional
TEST_SETTINGS: Cardiac atrium, read-out: ED50 (the source's name)

SMILES_TEXT	LIMIT_QUALIFIER	EC50 [µM]
N#CNC(=N)CCSCc1noc(NC(=N)N)n1	>	100
CC(=N)Nc1nc(CSCCC(=N)NC#N)cs1	=	9.1
N=C(N)Nc1nc(CSCCC(=N)NC(N)=O)no1	=	26
N#CNC(=N)CCSCc1nc[nH]n1	>	100
C/N=C(/CCSCc1[nH]cnc1C)NC#N	>	100
Cc1[nH]cnc1CSCCC(=N)NC(N)=O.Cl.Cl	=	0.9
Cl.Cl.N=C(CCSCc1c[nH]cn1)NC(N)=O	=	5.3
CN(C)Cc1ccc(CSCCC(=N)NC#N)o1	=	2.1

----------
Entries and their EC50
Organism: Cavia porcellus
EXPERIMENTAL_PROTOCOL: Dose representing 50% inhibition of positive chronotropic response to histamine in guinea pig atrium (5 x 10e -6M)
Format: functional
TEST_SETTINGS: Cardiac atrium, read-out: ED50 (the source's name)
MEASUREMENT_TYPE: EC50 (µM)

SMILES_TEXT	LIMIT_QUALIFIER	RESULT_NUMBER
N#C/N=C(\N)CCSCc1csc(N)n1	>	100
C#CC/N=C(/CCSCc1nc[nH]c1C)NC#N	>	100
CCc1[nH]cnc1CSCCC(=N)NC(N)=O.Cl.Cl	=	2
N#CNC(=N)CCSCc1ccc(CN2CCCCC2)o1	=	35
Cl.Cl.N=C(CCSCc1ccccn1)NC(N)=O	=	12
N#CNC(=N)CCCOc1cccc(CN2CCCCC2)c1	=	4.7
C/N=C(/NC)Nc1nc(CSCCC(=N)NC#N)cs1	>	100
N#CNC(=N)CCSCc1ccc(CN2CCOCC2)o1	>	100
CN(C)Nc1nc(CSCCC(=N)NC#N)cs1	>	100
CN(C)Cc1ccc(CSCCC(=N)NC#N)s1	=	13
Cl.Cl.N=C(CCSCc1nc[nH]n1)NC(N)=O	=	41
N#CNC(=N)CCSCc1ccccn1	>	100
Cl.Cl.N=C(N)Nc1nc(CSCCC(=N)NC(N)=O)cs1	=	0.074
